experiment: Concentration of test compound in rat plasma after subcutaneous administration; format: in vivo; conditions: sc, 50 mg/kg, an hour after administration
Where a name gives a salt, the structure may show the parent alone.
Test Readout: concentration at 1 h (ng/mL)
State just the number; it will be interpreted in ng/mL.

*Q* Any idea what concentration at 1 h was measured for CC[C@H](C)[C@H](NC(=O)C1OC1C(=O)OCc1ccccc1)C(=O)N(C)Cc1ccccc1 (mixture of isomers) ?
*A* 1300

*Q* And CC(C)C[C@H](NC(=O)C1OC1C(=O)O)C(=O)NCCc1ccccc1 (mixture of isomers) [Compound 16, potassium salt] ?
*A* 12000

*Q* And CC(C)C[C@H](NC(=O)[C@H](CC(C)C)NC(=O)C1OC1C(=O)O)C(=O)O (mixture of isomers) ?
*A* 15000

*Q* And COC(=O)[C@@H]1CCCN1C(=O)[C@H](CC(C)C)NC(=O)C1OC1C(=O)OCc1ccccc1 (mixture of isomers) ?
*A* 1500

====

Target: papain (Carica papaya)
Construct: purchased Sigma Chem. Co
Sequence (P00784 134-345): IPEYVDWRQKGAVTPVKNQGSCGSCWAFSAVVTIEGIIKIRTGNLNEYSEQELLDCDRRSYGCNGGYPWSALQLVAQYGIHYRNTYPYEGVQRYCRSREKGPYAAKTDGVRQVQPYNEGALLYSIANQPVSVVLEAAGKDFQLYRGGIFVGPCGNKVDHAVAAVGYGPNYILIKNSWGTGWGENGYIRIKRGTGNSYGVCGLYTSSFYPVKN
Test: Papain inhibitory activity (method of K. Hanada et al)
Assay type: biochemical
Conditions: papain 80 ug/ml, Sigma, 2 x cry.
Counter-ions that a name gives are not always drawn.
Each entry gets rule not met if its Papain ID50 (amount of inhibitor for 50% inhibition) stays under 0.2 µg, and rule met if its Papain ID50 (amount of inhibitor for 50% inhibition) is 0.2 µg or above.

Here's what some known entries look like.
CCOC(=O)C1OC1C(=O)N[C@@H](CC(C)C)C(=O)N1CCCC1 (mixture of isomers) [Compound 3]
rule met
CCCCCCCCCCNC(=O)[C@H](CC(C)C)NC(=O)C1OC1C(=O)OCC (mixture of isomers) [Compound 2]
rule met
CCC(C)[C@H](NC(=O)C1OC1C(=O)OCc1ccccc1)C(=O)N[C@@H](Cc1ccc(O)cc1)C(=O)OC (stereo partly shown) [Compound 39]
rule met
COC(=O)[C@H](CCCN=C(N)N[N+](=O)[O-])NC(=O)[C@H](CC(C)C)NC(=O)C1OC1C(=O)OCc1ccccc1 (mixture of isomers) [Compound 26]
rule not met

*Q* Determine whether measured Papain ID50 (amount of inhibitor for 50% inhibition) meets or exceeds 0.2 µg for CC(C)C[C@H](NC(=O)C1OC1C(=O)OC1CCCC1)C(=O)NC1CCCC1 (mixture of isomers) [Compound 14]
*A* rule not met

*Q* And CC(C)C[C@H](NC(=O)C1OC1C(=O)O)C(=O)NC(C)C (mixture of isomers) [Compound 15, potassium salt] ?
*A* rule not met

*Q* And COC(=O)[C@@H]1CCCN1C(=O)[C@H](CC(C)C)NC(=O)C1OC1C(=O)O (mixture of isomers) [Compound 46] ?
*A* rule not met

====

Each item that follows carries a reported concentration at 1 h.
assay: Concentration of test compound in rat plasma after subcutaneous administration; type: in vivo; conditions: sc, 50 mg/kg, an hour after administration
Where a name gives a salt, the structure may show the parent alone.
State just the number; it will be interpreted in ng/mL.

Consider the following illustrative entries.
COC(=O)[C@H](C)NC(=O)[C@@H](NC(=O)C1OC1C(=O)OCc1ccccc1)C(C)C (stereo partly shown) [Compound 42]
1100
CC(C)C[C@H](NC(=O)C1OC1C(=O)O)C(=O)NC(C)C (mixture of isomers) [Compound 15, potassium salt]
20000
COC(=O)[C@H](CCCN=C(N)N)NC(=O)[C@H](CC(C)C)NC(=O)C1OC1C(=O)O (mixture of isomers) [Compound 43]
7000

*Q* Any idea what concentration at 1 h was measured for CC(C)C[C@H](NC(=O)C1OC1C(=O)OCc1ccccc1)C(=O)N[C@@H](CCCNC(=O)OCc1ccccc1)C(=O)OCc1ccccc1 (mixture of isomers) [Compound 30] ?
*A* 2000

*Q* And COC(=O)[C@H](CC(C)C)NC(=O)[C@H](Cc1ccccc1)NC(=O)C1OC1C(=O)OCc1ccccc1 (stereo partly shown) [Compound 36] ?
*A* 1800

====

Target: papain (Carica papaya)
Construct: purchased Sigma Chem. Co
Assay: Papain inhibitory activity (method of K. Hanada et al)
Assay type: biochemical
Details: papain 80 ug/ml, Sigma, 2 x cry.
Protocol: Papain inhibitory activity of the compounds of the present invention was assayed by the method of K. Hanada et al, [Argric. Biol. Chem., 42, No. 3, 523(1978)] using papain (80 ug/ml, Sigma Chem. Co., 2 x cry.).
Each entry gets condition not met if its Papain ID50 (amount of inhibitor for 50% inhibition) stays under 0.4 µg, and condition met if its Papain ID50 (amount of inhibitor for 50% inhibition) is 0.4 µg or above.

*Q* Determine whether measured Papain ID50 (amount of inhibitor for 50% inhibition) meets or exceeds 0.4 µg for COC(=O)[C@H](CC(C)C)NC(=O)[C@H](Cc1ccccc1)NC(=O)C1OC1C(=O)OCc1ccccc1 (stereo partly shown)
*A* condition met

*Q* And CCOC(=O)C1OC1C(=O)N[C@@H](CC(C)C)C(=O)NC1CCCCC1 (mixture of isomers) ?
*A* condition met

*Q* And CCOC(=O)C1OC1C(=O)N[C@@H](CC(C)C)C(=O)NCCc1ccccc1 (stereo partly shown) ?
*A* condition met

*Q* And CC(C)C[C@H](NC(=O)C1OC1C(=O)OC1CCCCC1)C(=O)NC1CCCCC1 (mixture of isomers) ?
*A* condition not met

*Q* And CC(C)C[C@H](NC(=O)[C@H](CC(C)C)NC(=O)C1OC1C(=O)O)C(=O)O (mixture of isomers) ?
*A* condition not met

*Q* And COC(=O)[C@@H](CC(C)C)NC(=O)[C@H](CC(C)C)NC(=O)C1OC1C(=O)OCc1ccccc1 (mixture of isomers) ?
*A* condition not met

====

Each item that follows carries a reported Papain ID50 (amount of inhibitor for 50% inhibition).
molecular target: papain (Carica papaya); construct: purchased Sigma Chem. Co; assay: Papain inhibitory activity (method of K. Hanada et al); assay type: biochemical; conditions: papain 80 ug/ml, Sigma, 2 x cry.
Reply with a number, then the unit it belongs to.

CCOC(=O)C1OC1C(=O)N[C@@H](CC(C)C)C(=O)NCCC(C)C (stereo partly shown) [Compound 7]
0.410 µg
CC[C@H](C)[C@H](NC(=O)C1OC1C(=O)OCc1ccccc1)C(=O)N(C)Cc1ccccc1 (mixture of isomers) [Compound 12]
0.260 µg
CC(C)C[C@H](NC(=O)C1OC1C(=O)OCc1ccccc1)C(=O)N[C@@H](CCCNC(=O)OCc1ccccc1)C(=O)OCc1ccccc1 (mixture of isomers) [Compound 30]
0.391 µg
COC(=O)CC[C@H](NC(=O)[C@H](CC(C)C)NC(=O)C1OC1C(=O)OCc1ccccc1)C(=O)OC (mixture of isomers) [Compound 20]
0.255 µg
CCC(C)[C@H](NC(=O)C1OC1C(=O)OCc1ccccc1)C(=O)N[C@@H](Cc1c[nH]c2ccccc12)C(=O)OC (stereo partly shown) [Compound 38]
0.305 µg
COC(=O)[C@@H](NC(=O)[C@H](CC(C)C)NC(=O)C1OC1C(=O)OCc1ccccc1)[C@@H](C)O (stereo partly shown) [Compound 29]
0.35 µg

*Q* Any idea what Papain ID50 (amount of inhibitor for 50% inhibition) was measured for COC(=O)[C@@H]1CCCN1C(=O)[C@H](CC(C)C)NC(=O)C1OC1C(=O)OCc1ccccc1 (mixture of isomers) [Compound 19] ?
*A* 0.123 µg

*Q* And CC[C@H](C)[C@H](NC(=O)[C@H](CC(C)C)NC(=O)C1OC1C(=O)OCc1ccccc1)C(=O)OC (mixture of isomers) [Compound 21] ?
*A* 0.169 µg

*Q* And CCOC(=O)C1OC1C(=O)N[C@@H](CC(C)C)C(=O)N[C@@H](CC(C)C)C(=O)N(C)C (stereo partly shown) [Compound 35] ?
*A* 0.212 µg

*Q* And COC(=O)[C@H](CC(C)C)NC(=O)[C@H](CC(C)C)NC(=O)C1OC1C(=O)OCc1ccccc1 (stereo partly shown) [Compound 32] ?
*A* 0.227 µg

*Q* And COC(=O)[C@H](Cc1ccccc1)NC(=O)[C@H](Cc1ccccc1)NC(=O)C1OC1C(=O)OCc1ccccc1 (stereo partly shown) [Compound 37] ?
*A* 2.50 µg

*Q* And COC(=O)[C@@H](CC(C)C)NC(=O)[C@@H](CC(C)C)NC(=O)C1OC1C(=O)OCc1ccccc1 (stereo partly shown) [Compound 33] ?
*A* 0.255 µg

*Q* And CCOC(=O)C1OC1C(=O)N[C@@H](Cc1ccccc1)C(=O)N[C@@H](Cc1ccccc1)C(=O)OC (mixture of isomers) [Compound 18] ?
*A* 29.07 µg
